The measurements presented in this section are drawn from the supplement of paper PMC3334620.

- Assay system: Ylr278c (UniProt Q05854)
- Sequence (Q05854 whole entry): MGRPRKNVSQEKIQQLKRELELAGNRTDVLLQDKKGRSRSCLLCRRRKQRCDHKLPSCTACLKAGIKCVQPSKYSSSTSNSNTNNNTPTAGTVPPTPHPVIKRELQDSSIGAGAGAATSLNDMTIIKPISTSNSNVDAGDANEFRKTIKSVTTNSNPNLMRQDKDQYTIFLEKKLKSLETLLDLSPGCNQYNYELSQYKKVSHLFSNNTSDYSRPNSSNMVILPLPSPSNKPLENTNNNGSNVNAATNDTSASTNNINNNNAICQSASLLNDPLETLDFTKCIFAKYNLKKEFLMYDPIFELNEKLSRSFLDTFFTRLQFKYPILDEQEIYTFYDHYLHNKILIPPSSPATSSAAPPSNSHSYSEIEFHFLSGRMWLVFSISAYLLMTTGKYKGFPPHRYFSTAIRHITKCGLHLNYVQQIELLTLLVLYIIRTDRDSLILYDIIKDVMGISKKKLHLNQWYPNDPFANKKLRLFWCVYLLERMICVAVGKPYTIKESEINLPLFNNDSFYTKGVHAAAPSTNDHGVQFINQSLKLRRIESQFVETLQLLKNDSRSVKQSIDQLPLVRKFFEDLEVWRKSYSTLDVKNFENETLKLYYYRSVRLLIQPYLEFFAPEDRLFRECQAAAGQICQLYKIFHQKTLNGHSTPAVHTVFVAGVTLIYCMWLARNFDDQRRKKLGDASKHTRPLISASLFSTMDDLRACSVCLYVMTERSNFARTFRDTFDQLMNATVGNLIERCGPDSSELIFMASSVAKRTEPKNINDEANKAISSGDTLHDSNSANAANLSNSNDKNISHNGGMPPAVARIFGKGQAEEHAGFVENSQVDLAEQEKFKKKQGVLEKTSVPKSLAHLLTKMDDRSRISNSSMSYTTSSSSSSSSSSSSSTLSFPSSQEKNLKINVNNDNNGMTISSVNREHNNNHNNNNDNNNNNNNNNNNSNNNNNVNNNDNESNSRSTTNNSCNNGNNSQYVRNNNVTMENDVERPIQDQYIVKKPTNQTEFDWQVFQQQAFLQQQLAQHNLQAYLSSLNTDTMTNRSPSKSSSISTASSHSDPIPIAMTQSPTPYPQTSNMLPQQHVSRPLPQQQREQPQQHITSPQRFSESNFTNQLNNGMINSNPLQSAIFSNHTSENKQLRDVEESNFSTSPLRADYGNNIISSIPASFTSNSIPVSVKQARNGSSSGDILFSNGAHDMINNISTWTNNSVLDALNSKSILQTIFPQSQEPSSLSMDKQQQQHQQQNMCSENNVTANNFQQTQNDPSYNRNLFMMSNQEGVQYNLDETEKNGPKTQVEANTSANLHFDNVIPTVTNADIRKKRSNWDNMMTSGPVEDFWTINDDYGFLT
- Procedure details: PBM E-score (8-mer binding enrichment) (E-score (-0.5 to 0.5)); higher = stronger / more preferred TF binding
- Assay setup: protein concentration: 200 nM; construct: GST-DNA-binding domain
Over roughly 33,000 sequences, “E-score (-0.5 to 0.5)” has its median near -0.054; the highest 2% begin near 0.39. Shown is part of a subset that was picked to be rich in the highest values.
Entries annotated with measured PBM E-score
Reply briefly: the number, and no unit.

As a guide, the following entries are already answered.
{"Biosequence": "ATCCGGAC", "Reported property": "PBM E-score", "Value": 0.424}
{"Biosequence": "AATCCGCC", "Reported property": "PBM E-score", "Value": 0.319}
{"Biosequence": "ATACGGAC", "Reported property": "PBM E-score", "Value": 0.242}

Recorded result, "AGGTCCAA" , PBM E-score: -0.179

Recorded result, "ACTCCTCA" , PBM E-score: -0.21

Recorded result, "ACTCCGCT" , PBM E-score: 0.417

---

Entries annotated with measured PBM E-score
- Assay system: Ylr278c (UniProt Q05854)
- Procedure details: PBM E-score (8-mer binding enrichment) (E-score (-0.5 to 0.5)); higher = stronger / more preferred TF binding
- Assay setup: protein concentration: 200 nM; construct: GST-DNA-binding domain
Over roughly 33,000 sequences, “E-score (-0.5 to 0.5)” has its median near -0.054; the highest 2% begin near 0.39. The sample holds the highest values, similar sequences and a random draw of the others, so the mix is not that of the screen.
Reply briefly: the number, and no unit.

{"Biosequence": "ACGGAGAC", "Assay system": "Ylr278c (UniProt Q05854)", "PBM E-score": 0.39}
{"Biosequence": "ACTCCCGA", "Assay system": "Ylr278c (UniProt Q05854)", "PBM E-score": 0.217}
{"Biosequence": "GAGGAGAC", "Assay system": "Ylr278c (UniProt Q05854)", "PBM E-score": -0.0694}
{"Biosequence": "GGGCCGAA", "Assay system": "Ylr278c (UniProt Q05854)", "PBM E-score": 0.198}
{"Biosequence": "ACACTCCC", "Assay system": "Ylr278c (UniProt Q05854)", "PBM E-score": 0.00682}
{"Biosequence": "ACTCCCGG", "Assay system": "Ylr278c (UniProt Q05854)", "PBM E-score": 0.396}
{"Biosequence": "ATTCCCCG", "Assay system": "Ylr278c (UniProt Q05854)", "PBM E-score": 0.375}
{"Biosequence": "ATTCCCGG", "Assay system": "Ylr278c (UniProt Q05854)", "PBM E-score": 0.411}
{"Biosequence": "ATTCCGGC", "Assay system": "Ylr278c (UniProt Q05854)", "PBM E-score": 0.463}
{"Biosequence": "CCTCTCCG", "Assay system": "Ylr278c (UniProt Q05854)", "PBM E-score": 0.333}

Please find the next sequence below.
Recorded result, "CTTTGGTA" , PBM E-score: -0.0286

---

- Assay system: Ylr278c (UniProt Q05854)
- Procedure details: PBM E-score (8-mer binding enrichment) (E-score (-0.5 to 0.5)); higher = stronger / more preferred TF binding
- Assay setup: protein concentration: 200 nM; construct: GST-DNA-binding domain
Whole data set: some 33,000 sequences, median “E-score (-0.5 to 0.5)” near -0.054, cut for the highest 2% near 0.39. The sample as a whole holds a higher share of the highest values than the screen did.
Entries annotated with measured PBM E-score

{"Biosequence": "CCCACCAG", "Value": -0.212}
{"Biosequence": "ATTGTCCG", "Value": 0.452}
{"Biosequence": "AAATCGGT", "Value": 0.148}
{"Biosequence": "AATGTCCG", "Value": 0.458}
{"Biosequence": "GTCGGATA", "Value": 0.312}

Recorded result, "GAGGGAGA" , PBM E-score: -0.145

Recorded result, "TGTGTCAA" , PBM E-score: -0.227

Recorded result, "CATGTCCG" , PBM E-score: 0.384

Recorded result, "CCCTTTCG" , PBM E-score: 0.116

Recorded result, "GCGCAGTA" , PBM E-score: 0.0804

Recorded result, "CTGCGGGC" , PBM E-score: 0.276

Recorded result, "CCGATTTC" , PBM E-score: 0.303

Recorded result, "CACCGGGC" , PBM E-score: 0.304

Recorded result, "AACTTCTG" , PBM E-score: -0.197

Recorded result, "AGAGTTGG" , PBM E-score: -0.115

---

Entries annotated with measured PBM E-score
- Assay system: Ylr278c (UniProt Q05854)
- Procedure details: PBM E-score (8-mer binding enrichment) (E-score (-0.5 to 0.5)); higher = stronger / more preferred TF binding
- Assay setup: protein concentration: 200 nM; construct: GST-DNA-binding domain
In all, about 33,000 sequences were measured (“E-score (-0.5 to 0.5)”: median about -0.054, highest 2% from about 0.39 on). This excerpt belongs to a sample that is enriched for the highest values.

{"Biosequence": "CACAGATC", "Assay system": "Ylr278c (UniProt Q05854)", "PBM E-score": -0.0312}
{"Biosequence": "ACGTCGGA", "Assay system": "Ylr278c (UniProt Q05854)", "PBM E-score": 0.385}
{"Biosequence": "TATACCAA", "Assay system": "Ylr278c (UniProt Q05854)", "PBM E-score": -0.101}
{"Biosequence": "CGGCCCCC", "Assay system": "Ylr278c (UniProt Q05854)", "PBM E-score": 0.173}
{"Biosequence": "CGATCGTA", "Assay system": "Ylr278c (UniProt Q05854)", "PBM E-score": 0.00037}

Recorded result, "CCGTCGGA" , PBM E-score: 0.415

Recorded result, "GGGCGTTA" , PBM E-score: -0.101

Recorded result, "ATTTATCC" , PBM E-score: 0.163

Recorded result, "CCGTCGGC" , PBM E-score: 0.366

Recorded result, "GCGTCGAA" , PBM E-score: -0.0135

Recorded result, "GCGCAGCC" , PBM E-score: 0.0388

Recorded result, "CGAGAATA" , PBM E-score: 0.0398

Recorded result, "GTGTGGTA" , PBM E-score: -0.165

Recorded result, "GCGTCGGA" , PBM E-score: 0.438

Recorded result, "ATGAGCCG" , PBM E-score: -0.00632

---

- Assay system: Ylr278c (UniProt Q05854)
- Procedure details: PBM E-score (8-mer binding enrichment) (E-score (-0.5 to 0.5)); higher = stronger / more preferred TF binding
- Assay setup: protein concentration: 200 nM; construct: GST-DNA-binding domain
Whole data set: some 33,000 sequences, median “E-score (-0.5 to 0.5)” near -0.054, cut for the highest 2% near 0.39. What follows is part of a selection rich in the highest values, with near analogues and random picks from the rest.
Entries annotated with measured PBM E-score

As a guide, the following entries are already answered.
{"Biosequence": "ACCCGGCC", "Reported property": "PBM E-score", "Value": 0.272}
{"Biosequence": "ACCGGATC", "Reported property": "PBM E-score", "Value": 0.354}
{"Biosequence": "AACCGGCG", "Reported property": "PBM E-score", "Value": 0.361}
{"Biosequence": "ACGAGGAA", "Reported property": "PBM E-score", "Value": -0.0559}
{"Biosequence": "CGGGGTTA", "Reported property": "PBM E-score", "Value": 0.437}
{"Biosequence": "GAGGAGCC", "Reported property": "PBM E-score", "Value": -0.0931}
{"Biosequence": "ATCCGGCG", "Reported property": "PBM E-score", "Value": 0.432}
{"Biosequence": "CTGGAGCC", "Reported property": "PBM E-score", "Value": 0.0766}
{"Biosequence": "AATAATAT", "Reported property": "PBM E-score", "Value": 0.23}
{"Biosequence": "ATCCGACG", "Reported property": "PBM E-score", "Value": 0.367}

Recorded result, "CTCCGATC" , PBM E-score: 0.46

---

- Assay system: Ylr278c (UniProt Q05854)
- Procedure details: PBM E-score (8-mer binding enrichment) (E-score (-0.5 to 0.5)); higher = stronger / more preferred TF binding
- Assay setup: protein concentration: 200 nM; construct: GST-DNA-binding domain
The full ranking holds about 33,000 sequences; the median of “E-score (-0.5 to 0.5)” is about -0.054, and the highest 2% start at about 0.39. Only a selection was taken, and the highest values are over-represented in it overall.
Reported property: PBM E-score
Reply briefly: the number, and no unit.

As a guide, the following entries are already answered.
{"Biosequence": "AGCCTGGC", "PBM E-score": -0.226}
{"Biosequence": "CGGAGACG", "PBM E-score": 0.415}
{"Biosequence": "GTCCGCAA", "PBM E-score": 0.334}
{"Biosequence": "AGGAGACA", "PBM E-score": -0.0751}

Please find the next sequence below.
Recorded result, "ATCAAGAC" , PBM E-score: -0.00757
